The reported numbers originate from ChEMBL document CHEMBL4334523.

- systemTested: Stimulator of interferon genes protein (Homo sapiens, UniProt Q86WV6, G230A/R293Q/R71H)
- Sequence (Q86WV6 whole entry R71H/G230A/R293Q): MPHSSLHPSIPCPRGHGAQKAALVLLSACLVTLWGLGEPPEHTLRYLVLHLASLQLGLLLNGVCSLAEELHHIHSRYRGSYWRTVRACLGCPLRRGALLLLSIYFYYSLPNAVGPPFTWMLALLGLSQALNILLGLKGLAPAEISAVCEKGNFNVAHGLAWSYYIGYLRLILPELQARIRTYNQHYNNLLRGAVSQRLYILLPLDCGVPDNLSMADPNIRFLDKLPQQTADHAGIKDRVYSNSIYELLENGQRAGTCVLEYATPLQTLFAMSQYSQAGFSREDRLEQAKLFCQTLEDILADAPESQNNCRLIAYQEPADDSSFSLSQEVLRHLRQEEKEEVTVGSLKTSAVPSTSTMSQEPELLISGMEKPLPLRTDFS
- methodDescription: Activation of recombinant human STING haplotype R71H/G230A/R293Q mutant expressed in 293T cells measured after 30 mins in presence of digitonin A by bright Glo-luciferase reporter gene assay
property: EC50 (µM)

chemSmiles: NC(=O)c1ncn([C@@H]2O[C@@H]3COP(=O)(O)O[C@@H]4[C@H](O)[C@@H](COP(=O)(O)O[C@H]3[C@H]2O)O[C@H]4n2cnc3c(=O)[nH]c(N)nc32)c1N
systemTested: Stimulator of interferon genes protein (Homo sapiens, UniProt Q86WV6, G230A/R293Q/R71H)
unitAbbreviation: µM
reportedResult: 0.21

a. Nc1nc2c(ncn2[C@@H]2O[C@@H]3COP(=O)(O)O[C@H]4[C@@H](O)[C@H](n5cnc6c(O)nc(O)nc65)O[C@@H]4COP(=O)(O)O[C@@H]2[C@@H]3O)c(=O)[nH]1
b. Nc1nc2c(ncn2[C@@H]2O[C@@H]3COP(=O)(O)O[C@H]4[C@@H](F)[C@H](n5cnc6c(N)nc(F)nc65)O[C@@H]4COP(=O)(O)O[C@@H]2[C@@H]3O)c(=O)[nH]1
In terms of reported EC50, does a or b have the smaller number? Reply with the label of the item you choose.
b
(b: 0.08 µM, a: 1.7 µM)
